IC50, inhibition of TSLP induced proliferation of Ba/F3-TSLPR-IL7Ra cells (CellTiter-Glo) overview
- System Tested: human TSLP (human, UniProt Q969D9 29-159)
- Sequence (Q969D9 29-159 R127A/R130S limits assumed): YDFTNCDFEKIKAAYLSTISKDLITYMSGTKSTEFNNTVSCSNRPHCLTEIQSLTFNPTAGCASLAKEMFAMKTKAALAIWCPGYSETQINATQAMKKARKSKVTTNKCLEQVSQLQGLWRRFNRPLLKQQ
- Assay Text: cell-based or functional assay
Report only the number, with the unit µg/mL understood.

{"columns": ["Binder", "Measured Value"],
 "data": [
  ["TSLP-0203 (antibody, V domains shown) VH: QVQLVQSGAEVKKPGSSVKVSCKASGFTFGSYGINWVRQAPGQGLEWLGVIVPLVGVTIYAEKFQGRVTITADTSTSTAYMELSSLRSEDTAVYYCARGQEYFYWYFDLWGQGTLVTVSS VL: QSALTQPPSASGSPGQSVTISCTGTSSDIGGYDRVSWYQQHPGKAPKLMIYGVSKRPSGVPDRFSGSKSGNTASLTVSGLQAEDEADYYCSSYASGHTFGLFGGGTKLTVL", 0.0363],
  ["TSLP-0202 (antibody, V domains shown, also called TSLP-0202-IgG1) VH: QVQLVQSGAEVKKPGSSVKVSCKASGFTFGSYGINWVRQAPGQGLEWMGVIVPLVGVTIYAEKFQGRVTITADESTSTAYMELSSLRSEDTAVYYCARGQEYFYWYFDLWGQGTLVTVSS VL: QSALTQPPSASGSPGQSVTISCSGSSSDIGGYNRVSWYQQHPGKAPKLMIYDVSKRPSGVPDRFSGSKSGNTASLTVSGLQAEDEADYYCSSYAGTDTFILFGGGTKLTVL", 0.0131],
  ["TSLP-0201 (antibody, V domains shown) VH: QVQLVQSGAEVKKPGSSVKVSCKASGFTFGSYGINWVRQAPGQGLEWMGVIVPLVGVTIYAEKFQGRVTITADTSTSTAYMELSSLRSEDTAVYYCARGQEYFYWYFDLWGQGTLVTVSS VL: QSALTQPPSASGSPGQSVTISCSGSSSDIGGYNRVSWYQQHPGKAPKLMIYDVSKRPSGVPDRFSGSKSGNTASLTVSGLQAEDEADYYCSSYAGTDTFILFGGGTKLTVL", 0.0185],
  ["TSLP-0111 (antibody, V domains shown) VH: QVQLQESGPGLVKPSETLSLTCAVSGYSISSGYGWSWIRQPPGKGLEWIGYFSYYGSTSYNPSLKSRVTISRDTSKNQFSLKLSSVTAADTAVYYCARTNLLYFDSWGQGTLVTVSS VL: EIVMTQSPATLSLSPGERATLSCRASQSVSSNLAWYQQKPGQAPRLLIYDASSRATGIPARFSGSGSGTDFTLTISSLEPEDFAVYYCQQYSNWPQYSFGQGTKVEIK", 0.244]
]}

Could you now look at the following binder, please?
Q: Query: IC50, inhibition of TSLP induced proliferation of Ba/F3-TSLPR-IL7Ra cells (CellTiter-Glo); subject: TSLP-0112 (antibody, V domains shown) VH: QVQLQESGPGLVKPSETLSLTCAVSGYSISSGYGWSWIRQPPGKGLEWIGYISYYGSTSYNPSLKSRVTISRDTSKNQFSLKLSSVTAADTAVYYCARTNLLYFDYWGQGTLVTVSS VL: EIVMTQSPATLSLSPGERATLSCRASQSVSSYLAWYQQKPGQAPRLLIYDASSRATGIPARFSGSGSGTDFTLTISSLEPEDFAVYYCQQYSDWPQYSFGQGTKVEIK
Ans: 0.214
